- Tested on: MS2 coat protein
- TEST METHOD NOTES: apparent KD of MS2 coat protein; designed switch direction (-1 OFF switch, 1 ON switch): -1; higher = weaker reporter binding
- STATED CONDITIONS: input ligand: FMN 200 uM
Assign class by apparent KD of MS2 coat protein: not lower than 30 nM means y; lower than 30 nM means n.

* UUCGCGGAAGGAUAUACAUGAGGAUCACCCAUGUGCUUAUGCGCAACAGCUUCGCAGUGUAGAAGGUUCAGAGU [Eternabot (L1) Solution 3] (Eterna round: R97, puzzle: Exclusion 3) | n
* CCAGAUGCAGGAUAUGUAAAAUUUGACAUGAGGAUCACCCAUGUAGAUCCUGAAUUUCCUGCAGAAGGGCAUCUGG [Mat - Exclusion 5 - Eli Mod - D20] (Eterna round: R97, puzzle: Exclusion 5) | y
* UGGGUCACAGGAUAUACAUGAGGAUCACCCAUGUCGUAUUUCGUGGCGGAGAGCUCGAGUAGAAGGGUGCAUCC [Malarala] (Eterna round: R96, puzzle: Exclusion 3) | y
* AAUUUACAUGAGGAUCACCCAUGUGAGGAUAUAUGCAAACAAUUUUUAUUAAUAAAGCAUAGAAGGCGCGUGAU [JR_Exc1_Sub043] (Eterna round: R97, puzzle: Exclusion 1) | y
* AUGGGUACUUUCGGAGCGACAUGAGGAUCACCCAUGUAUGUUGAGGAUAUCCACUGCUAAGGACGGGAGAAGGCAGUGUACUGU [Ex NG3 #83] (Eterna round: R96, puzzle: Exclusion NG 3) | n
